Values from patent US12064516B2

assay: Phase 1 clinical trial, single ascending dose (SAD) pharmacokinetics; type: in vivo, human; settings: human, in vivo, po, 700 mg, healthy volunteers; oral single dose 700 mg
assay endpoint: Cmax

Query block: Param item = `CC(C)(O)c1nc2ccccc2cc1N` ; retrieve measured Cmax.
Result block: ~2020 ng/mL

* * *

assay: Pharmacokinetics of compound I-1 in the dog by intravenous, oral gavage and oral capsule routes; format: in vivo, beagle dogs; details: male, beagle, dog, plasma, po, 10 mg/kg, Oral Gavage 0.5% Methylcellulose 10 mg/kg; Subj2
assay endpoint: Cmax (ng/mL)
Give the quantity in ng/mL, number only.

Query block: Param item = `CC(C)(O)c1nc2ccccc2cc1N` ; retrieve measured Cmax.
Result block: 3670

* * *

Test: Phase 1 clinical trial, multiple ascending dose (MAD) pharmacokinetics
Format: in vivo, human
Details: human, in vivo, po, 600 mg, oral 600 mg BID; Day 1; read-out: Mean Cmax
Excerpt: PK data are presented below.
assay endpoint: Cmax

Query block: Param item = `CC(C)(O)c1nc2ccccc2cc1N` ; retrieve measured Cmax.
Result block: ~2.23 µg/mL

* * *

assay: Pharmacokinetics of compound I-1 in the dog by intravenous, oral gavage and oral capsule routes; format: in vivo, beagle dogs; conditions: male, beagle, dog, plasma, iv, 3 mg/kg, Group 1: IV 3 mg/kg; 12 h; Subject 1; read-out: Concentration at time point
assay endpoint: concentration at 12 h (ng/mL)
Give the quantity in ng/mL, number only.

Query block: Param item = `CC(C)(O)c1nc2ccccc2cc1N` ; retrieve measured concentration at 12 h.
Result block: 23.9

* * *

assay: Phase 1 clinical trial, single ascending dose (SAD) pharmacokinetics; assay type: in vivo, human; conditions: human, in vivo, po, 100 mg, healthy volunteers; oral single dose 100 mg
assay endpoint: Cmax

Query block: Param item = `CC(C)(O)c1nc2ccccc2cc1N` ; retrieve measured Cmax.
Result block: ~140 ng/mL

* * *

assay: Pharmacokinetics of compound I-1 in the dog by intravenous, oral gavage and oral capsule routes; assay type: in vivo, beagle dogs; settings: male, beagle, dog, plasma, iv, 3 mg/kg, Group 1: IV 3 mg/kg; 2 h; Subject 3; read-out: Concentration at time point
assay endpoint: concentration at 2 h (ng/mL)
Give the quantity in ng/mL, number only.

Query block: Param item = `CC(C)(O)c1nc2ccccc2cc1N` ; retrieve measured concentration at 2 h.
Result block: 443

* * *

experiment: Pharmacokinetics of compound I-1 in the dog by intravenous, oral gavage and oral capsule routes; format: in vivo, beagle dogs; conditions: male, beagle, dog, plasma, po, 7.2 mg/kg, 100 mg Capsule, average dose 7.2 mg/kg; Average
assay endpoint: AUC(0-inf) (ng·h/mL)
Give the quantity in ng·h/mL, number only.

Query block: Param item = `CC(C)(O)c1nc2ccccc2cc1N` ; retrieve measured AUC(0-inf).
Result block: 8170

* * *

experiment: Pharmacokinetics of compound I-1 in the dog by intravenous, oral gavage and oral capsule routes; type: in vivo, beagle dogs; settings: male, beagle, dog, plasma, iv, 3 mg/kg, Intravenous - 3 mg/kg; Average
assay endpoint: AUC(0-t) (ng·h/mL)
Give the quantity in ng·h/mL, number only.

Query block: Param item = `CC(C)(O)c1nc2ccccc2cc1N` ; retrieve measured AUC(0-t).
Result block: 4100

* * *

assay: Pharmacokinetics of compound I-1 in the dog by intravenous, oral gavage and oral capsule routes; format: in vivo, beagle dogs; conditions: male, beagle, dog, plasma, po, 7.2 mg/kg, 100 mg Capsule, average dose 7.2 mg/kg; Average
assay endpoint: half-life (min)
Give the quantity in min, number only.

Query block: Param item = CC(C)(O)c1nc2ccccc2cc1N [I-1] ; retrieve measured half-life.
Result block: 79.8
